Recorded inhibition, one value per entry.
experimental system: Scavenger receptor class B member 1 (Mus musculus) (UniProt Q61009)
Sequence (Q61009 whole entry, looked up): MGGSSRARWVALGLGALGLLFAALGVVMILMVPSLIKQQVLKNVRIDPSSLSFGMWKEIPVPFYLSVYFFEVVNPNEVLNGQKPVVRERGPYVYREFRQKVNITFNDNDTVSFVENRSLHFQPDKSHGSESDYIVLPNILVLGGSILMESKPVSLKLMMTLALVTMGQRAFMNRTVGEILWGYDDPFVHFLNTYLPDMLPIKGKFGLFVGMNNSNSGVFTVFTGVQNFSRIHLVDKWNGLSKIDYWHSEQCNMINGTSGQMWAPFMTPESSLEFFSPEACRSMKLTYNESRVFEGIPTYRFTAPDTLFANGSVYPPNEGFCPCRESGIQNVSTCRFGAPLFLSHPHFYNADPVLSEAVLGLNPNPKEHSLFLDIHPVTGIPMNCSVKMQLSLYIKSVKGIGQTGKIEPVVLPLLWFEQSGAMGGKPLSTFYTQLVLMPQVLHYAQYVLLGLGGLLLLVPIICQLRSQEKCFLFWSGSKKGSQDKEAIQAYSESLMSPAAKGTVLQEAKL
assay method text: mouse SR-BI DiI-HDL uptake blockers – ldlA[mSR-BI] cells, fluorescence, single point, primary screen (AID 488896);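 also: 0% = median of neutral control wells and 100% = median of positive control wells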
test conditions: ldlA[mSR-BI] CHO cells, 3 h, at 12.5 µM, active compounds read high
Among all 320,000 compounds or so, about 3,100 (0.97%) were called active. The list comes from a sample in which actives are over-represented; it also holds close analogues and randomly drawn compounds.
Report the figure in % without appending any unit label.

[[record]]
smiles_input = "COC(=O)c1cnc(Nc2cc(C)ccc2OC)c2ccccc12"
unit_tag = "%"
readout_number = 11.3


# return inhibition of "Cc1ccc(OCC(=O)Nc2ccc(N3CCN(C(=O)c4ccco4)CC3)cc2)c(C)c1" (system: Scavenger receptor class B member 1 (Mus musculus) (UniProt Q61009))
78

# return inhibition of "Nc1ccc2[nH]c(=S)sc2c1" (system: Scavenger receptor class B member 1 (Mus musculus) (UniProt Q61009))
5.71

# return inhibition of "CCC(=O)Nc1ccc(C(=O)N2CCN(C(=O)c3ccco3)CC2)cc1" (system: Scavenger receptor class B member 1 (Mus musculus) (UniProt Q61009))
-9.2

# return inhibition of "COc1ccc(C)cc1Nc1nc(-c2c(C)[nH]c3ccccc23)cs1" (system: Scavenger receptor class B member 1 (Mus musculus) (UniProt Q61009))
77.1

# return inhibition of "O=c1[nH]c(=S)[nH]c(O)c1/C=C1\C=Nc2ccccc21" (system: Scavenger receptor class B member 1 (Mus musculus) (UniProt Q61009))
-12.1
